# tgt: T1, human CXCR2 (human, UniProt P25025 1-360)
# T1 construct: also called CXC chemokine receptor 2; hCXCR2
# T1 sequence: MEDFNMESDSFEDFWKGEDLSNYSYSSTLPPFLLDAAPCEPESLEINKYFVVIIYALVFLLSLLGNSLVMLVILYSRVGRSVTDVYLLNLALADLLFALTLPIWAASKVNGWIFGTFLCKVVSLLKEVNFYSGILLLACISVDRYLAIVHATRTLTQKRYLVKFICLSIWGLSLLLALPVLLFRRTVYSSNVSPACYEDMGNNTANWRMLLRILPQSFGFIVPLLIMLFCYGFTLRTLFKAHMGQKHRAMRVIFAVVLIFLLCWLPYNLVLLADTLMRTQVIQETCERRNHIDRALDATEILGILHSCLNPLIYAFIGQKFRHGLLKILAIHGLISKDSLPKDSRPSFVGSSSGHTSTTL
# assay_details: flow cytometry, CXCR2-transfected Expi293F cells
Would you kindly list Fold change in binding relative to BKO-4A8 for each of these binders?
Field: numeric (fold). Do not append units.

# input Name the reported Fold change in binding relative to BKO-4A8 value associated with the binder BKO-4A8 variant VL N95aQ (antibody, human IgG4 S228P, lambda, V domains shown, IgG4 S228P, lambda; parental heavy chain; also called 4A8 VL N95aQ) VH: EVQLLESGGGLVQPGGSLRLSCAASGFTFSSSTMSWVRQAPGKGLEWVSAISGRGRNTYYADSVKGRFTISRDNSRNTLYLQMNSLRAEDTAVYYCAIQMGYWGQGILVTVSS VL: QSALTQPPSASGSPGQSVTISCIGTSSDVGGYNYVSWYQQHPDKAPKLMIYEVNKRPSGVPDRFSGSKSGNTASLTVSGLQAEDEADYYCSSYAGNNQFGVFGGGTKLTVLG
# output 1

# input Name the reported Fold change in binding relative to BKO-4A8 value associated with the binder BKO-4A8 variant VH T33A (antibody, human IgG4 S228P, lambda, V domains shown, IgG4 S228P, lambda; parental light chain; also called 4A8 VH T33A) VH: EVQLLESGGGLVQPGGSLRLSCAASGFTFSSSAMSWVRQAPGKGLEWVSAISGRGRNTYYADSVKGRFTISRDNSRNTLYLQMNSLRAEDTAVYYCAIQMGYWGQGILVTVSS VL: QSALTQPPSASGSPGQSVTISCIGTSSDVGGYNYVSWYQQHPDKAPKLMIYEVNKRPSGVPDRFSGSKSGNTASLTVSGLQAEDEADYYCSSYAGNNNFGVFGGGTKLTVLG
# output 1.3
